biological target: T1, wild type full length EGFR purified from A431 cells (human, UniProt P00533 25-1210); assay: competition ELISA, competitor Ab-3; parameters: concentration or dose not given beside the values
T1 construct: mature; Bought; coated on ELISA wells; also called full length EGFR receptor antigen; Sigma E3641
Give measured % inhibition for each item. Keep answers brief.
The answer is to be given in %; state only the numeric part.

Sure, the documented % inhibition for antibody 1320 (antibody, human IgG1, kappa, V domains shown, Chimeric IgG1 kappa) VH: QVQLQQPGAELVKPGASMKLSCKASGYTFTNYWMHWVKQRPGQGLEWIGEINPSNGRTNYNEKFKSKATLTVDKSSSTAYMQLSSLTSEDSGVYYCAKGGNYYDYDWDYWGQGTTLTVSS VL: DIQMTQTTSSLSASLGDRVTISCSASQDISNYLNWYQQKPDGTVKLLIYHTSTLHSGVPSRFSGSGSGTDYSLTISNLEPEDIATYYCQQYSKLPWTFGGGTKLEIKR is 0

The recorded % inhibition for antibody 1260 (antibody, human IgG1, kappa, V domains shown, Chimeric IgG1 kappa) VH: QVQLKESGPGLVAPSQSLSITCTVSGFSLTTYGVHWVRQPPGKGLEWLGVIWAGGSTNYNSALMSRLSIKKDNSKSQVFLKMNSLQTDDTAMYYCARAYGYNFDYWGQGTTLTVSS VL: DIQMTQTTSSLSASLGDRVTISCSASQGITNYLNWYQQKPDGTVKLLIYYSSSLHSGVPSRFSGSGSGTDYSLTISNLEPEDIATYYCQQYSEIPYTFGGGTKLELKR is 12

Lab book: % inhibition of antibody 1261 (antibody, human IgG1, kappa, V domains shown, Chimeric IgG1 kappa) VH: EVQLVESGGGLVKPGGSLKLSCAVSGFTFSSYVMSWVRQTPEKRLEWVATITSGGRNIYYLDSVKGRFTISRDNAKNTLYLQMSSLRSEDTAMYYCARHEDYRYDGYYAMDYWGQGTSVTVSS VL: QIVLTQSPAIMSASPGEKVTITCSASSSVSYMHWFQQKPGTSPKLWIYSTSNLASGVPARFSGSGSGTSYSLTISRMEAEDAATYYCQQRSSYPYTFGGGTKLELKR noted as 30

meta.source: patent US20110135636A1
